Source of measurements: PubChem BioAssay AID488780

systemName: Steroidogenic factor 1 (Homo sapiens) (UniProt Q13285)
Sequence (Q13285 whole entry, looked up): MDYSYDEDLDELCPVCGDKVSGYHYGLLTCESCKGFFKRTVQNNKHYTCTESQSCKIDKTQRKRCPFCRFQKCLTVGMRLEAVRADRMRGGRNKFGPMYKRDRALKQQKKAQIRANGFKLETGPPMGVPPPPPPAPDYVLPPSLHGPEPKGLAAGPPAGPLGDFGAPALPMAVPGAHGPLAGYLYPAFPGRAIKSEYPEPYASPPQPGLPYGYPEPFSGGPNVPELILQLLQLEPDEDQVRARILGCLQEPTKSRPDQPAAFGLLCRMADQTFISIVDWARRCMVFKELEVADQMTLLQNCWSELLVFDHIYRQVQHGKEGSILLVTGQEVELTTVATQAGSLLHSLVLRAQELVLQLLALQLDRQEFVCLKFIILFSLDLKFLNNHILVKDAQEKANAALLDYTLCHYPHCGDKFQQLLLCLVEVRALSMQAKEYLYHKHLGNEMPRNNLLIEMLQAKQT
measurementDescription: dose-dependent SF-1 transcriptional inhibition – cell-based, luminescence, selectivity assay for LRH1 inverse agonist project, dose response (AID 488780)
experimentalConditions: HEK293T SF-1 5xSFRE luciferase reporter, 20 h; at 10 µM (top of the series)
Activity calls are given as the source filed them.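 The calls were made as follows: active = IC50 at or below 5 µM; inactive = the rest.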
recordedMetric: fold change, <1 = inhibition

The cases that follow already have their fold change, <1 = inhibition on record.
1. Cc1cc(C)cc(N2CCN(c3cc(=O)n(C4CCCCC4)c(=O)[nH]3)CC2)c1
inactive
2. O=c1cc(N2CCN(c3nc(-c4ccccc4)ns3)CC2)[nH]c(=O)n1C1CCCCC1
inactive
3. O=c1cc(N2CCN(c3cccc(Cl)c3Cl)CC2)[nH]c(=O)n1C1CCCCC1
inactive
4. O=c1cc(N2CCN(c3cccc(C(F)(F)F)c3)CC2)[nH]c(=O)n1C1CCCCC1
inactive

// molecule "CCn1c(=O)cc(N2CCN(c3cccc(Cl)c3)CC2)[nH]c1=O" , assay Steroidogenic factor 1 (Homo sapiens) (UniProt Q13285), fold change, <1 = inhibition value: inactive
